- System: CYP enzymes in human liver microsomes (N-desmethylvandetanib formation) (Homo sapiens)
- Sequence (P08684 2-503): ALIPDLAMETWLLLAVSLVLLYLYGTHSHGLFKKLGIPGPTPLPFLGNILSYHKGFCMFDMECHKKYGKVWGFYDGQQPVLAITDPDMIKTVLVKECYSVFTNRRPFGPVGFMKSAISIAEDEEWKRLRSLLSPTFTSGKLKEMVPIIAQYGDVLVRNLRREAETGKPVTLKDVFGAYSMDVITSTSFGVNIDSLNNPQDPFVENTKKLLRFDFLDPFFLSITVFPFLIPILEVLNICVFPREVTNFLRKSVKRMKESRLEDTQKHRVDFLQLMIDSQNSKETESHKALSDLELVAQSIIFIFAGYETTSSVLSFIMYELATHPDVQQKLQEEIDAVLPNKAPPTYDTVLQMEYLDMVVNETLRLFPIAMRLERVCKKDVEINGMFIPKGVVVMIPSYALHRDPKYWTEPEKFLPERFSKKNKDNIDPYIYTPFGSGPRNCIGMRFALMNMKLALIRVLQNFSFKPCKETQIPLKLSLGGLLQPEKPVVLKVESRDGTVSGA
- Sequence (P16435 2-677, further chain): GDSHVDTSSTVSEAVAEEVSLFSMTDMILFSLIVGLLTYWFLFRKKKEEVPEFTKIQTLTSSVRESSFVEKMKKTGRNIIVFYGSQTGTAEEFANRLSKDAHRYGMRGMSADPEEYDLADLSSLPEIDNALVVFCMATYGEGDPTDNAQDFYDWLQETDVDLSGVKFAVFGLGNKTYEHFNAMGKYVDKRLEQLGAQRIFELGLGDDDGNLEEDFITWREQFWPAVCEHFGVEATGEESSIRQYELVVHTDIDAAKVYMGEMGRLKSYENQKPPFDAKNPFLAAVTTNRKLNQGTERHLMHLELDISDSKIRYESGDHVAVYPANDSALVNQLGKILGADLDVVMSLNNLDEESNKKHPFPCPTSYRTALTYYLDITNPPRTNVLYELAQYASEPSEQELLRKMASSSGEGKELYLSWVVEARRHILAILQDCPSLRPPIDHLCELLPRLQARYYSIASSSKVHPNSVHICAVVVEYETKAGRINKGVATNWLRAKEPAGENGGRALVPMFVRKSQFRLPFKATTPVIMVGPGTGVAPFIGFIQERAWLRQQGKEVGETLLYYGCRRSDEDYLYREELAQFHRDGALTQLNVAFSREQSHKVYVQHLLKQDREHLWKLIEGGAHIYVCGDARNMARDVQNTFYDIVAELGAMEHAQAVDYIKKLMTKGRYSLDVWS
- Protocol Summary: Effects of inhibitors on N-desmethylvandetanib formation in human liver microsomes
- Assay Context: human, pH 7.4
Test Readout: inhibition at 20 min, 500 µM

Query block: Request the reported inhibition at 20 min, 500 µM associated with Nc1ccc(S(=O)(=O)Nc2ccnn2-c2ccccc2)cc1
Result block: < 50%
